Source of measurements: patent US10208081B2

# TESTED_TARGET: UniProtKB Q96RI1
# Sequence (Q96RI1 whole entry, the tested form may be a part): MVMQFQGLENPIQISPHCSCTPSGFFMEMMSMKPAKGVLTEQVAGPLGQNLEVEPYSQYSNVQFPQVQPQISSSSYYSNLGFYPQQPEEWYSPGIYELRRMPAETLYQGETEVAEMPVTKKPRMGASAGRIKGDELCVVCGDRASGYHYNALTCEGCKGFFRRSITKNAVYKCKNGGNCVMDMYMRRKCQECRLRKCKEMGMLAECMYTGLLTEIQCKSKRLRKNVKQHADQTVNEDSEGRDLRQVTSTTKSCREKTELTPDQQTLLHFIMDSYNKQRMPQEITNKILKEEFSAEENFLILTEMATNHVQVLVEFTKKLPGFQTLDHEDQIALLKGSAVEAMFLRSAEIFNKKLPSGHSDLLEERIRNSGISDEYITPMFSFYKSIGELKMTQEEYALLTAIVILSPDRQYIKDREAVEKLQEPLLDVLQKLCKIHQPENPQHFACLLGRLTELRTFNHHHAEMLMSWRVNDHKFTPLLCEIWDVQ
# ASSAY_INFO: Human FXR (NR1H4) Assay (Gal4 promoter driven luciferase reporter, Indigo Bioscience kit IB00601)
# Assay type: cell-based
# CONDITION_NOTES: efficacy normalized to CDCA set as 100%
Each entry below lists one item and its recorded Efficacy (%) value.
Just the number please, in %, no unit attached.

CC[C@H]1[C@@H](O)[C@@H]2[C@H](CC[C@]3(C)[C@@H]([C@H](C)CCNC(=O)NS(=O)(=O)c4nccs4)CC[C@@H]23)[C@@]2(C)CC[C@@H](O)C[C@@H]12 [Example 100]
364

Consider the record given below.
INPUT: What does the data say about its Efficacy (%)? Entry: CC[C@H]1[C@@H](O)[C@@H]2[C@H](CC[C@]3(C)[C@@H]([C@H](C)CCNC(=O)NS(=O)(=O)C[C@@]45CCC(CC4=O)C5(C)C)CC[C@@H]23)[C@@]2(C)CC[C@@H](O)C[C@@H]12 [Example 61]
OUTPUT: 403
